assay: Cytotoxicity against MDCK cells assessed as altered cell morphology; format: cell-based, Canis lupus familiaris; conditions: dog
# MCC listing for each entry below

COMPOUND	MCC
NC12CC3CC(CC(C3)C1)C2	> 200 µg/mL
Cc1ccccc1C(=O)n1c(-c2ccc(S(=O)(=O)O)cc2)nc2ccccc21	> 100 µg/mL
O=C(c1ccccc1)n1c(-c2ccc(S(=O)(=O)O)cc2)nc2ccccc21	> 100 µg/mL
CCCCCCCC/C=C/CCCCCCCC(=O)n1c(-c2ccc(S(=O)(=O)O)cc2)nc2ccccc21	> 100 µg/mL
COc1ccc(C(=O)n2c(-c3ccc(S(=O)(=O)O)cc3)nc3ccccc32)cc1	> 100 µg/mL
O=C(c1ccc(O)cc1O)n1c(-c2ccc(S(=O)(=O)O)cc2)nc2ccccc21	20 µg/mL
C/C=C/C(=O)n1c(-c2ccc(S(=O)(=O)O)cc2)nc2ccccc21	> 100 µg/mL
O=C(c1ccccc1O)n1c(-c2ccc(S(=O)(=O)O)cc2)nc2ccccc21	100 µg/mL
Cc1ccc(S(=O)(=O)n2c(-c3ccc(S(=O)(=O)O)cc3)nc3ccccc32)cc1	> 100 µg/mL
C=C(C)C(=O)n1c(-c2ccc(S(=O)(=O)O)cc2)nc2ccccc21	> 100 µg/mL
Cc1ccc(C(=O)n2c(-c3ccc(S(=O)(=O)O)cc3)nc3ccccc32)cc1	> 100 µg/mL
CCCCC(=O)n1c(-c2ccc(S(=O)(=O)O)cc2)nc2ccccc21	> 100 µg/mL
C=CC(=O)n1c(-c2ccc(S(=O)(=O)O)cc2)nc2ccccc21	≥ 0.8 µg/mL
O=C(c1ccc(Cl)cc1)n1c(-c2ccc(S(=O)(=O)O)cc2)nc2ccccc21	> 100 µg/mL
NC(=O)c1ncn([C@@H]2O[C@H](CO)[C@@H](O)[C@H]2O)n1	> 100 µg/mL
O=C(c1ccc([N+](=O)[O-])cc1)n1c(-c2ccc(S(=O)(=O)O)cc2)nc2ccccc21	> 100 µg/mL
CCCCCCCCCCCCCCCC(=O)n1c(-c2ccc(S(=O)(=O)O)cc2)nc2ccccc21	> 100 µg/mL
Nc1ccc(C(=O)n2c(-c3ccc(S(=O)(=O)O)cc3)nc3ccccc32)cc1	20 µg/mL
O=C(c1ccccc1Cl)n1c(-c2ccc(S(=O)(=O)O)cc2)nc2ccccc21	> 100 µg/mL
CC(N)C12CC3CC(CC(C3)C1)C2 (stereo not given)	> 200 µg/mL

###

Listed below: MCC values for each entry.
experiment: Cytotoxicity against human HEL cells assessed as altered cell morphology; format: cell-based

GIVEN SMILES	MCC
COc1ccc(C(=O)n2c(-c3ccc(S(=O)(=O)O)cc3)nc3ccccc32)cc1	> 100 µg/mL
CCCCCCCC/C=C/CCCCCCCC(=O)n1c(-c2ccc(S(=O)(=O)O)cc2)nc2ccccc21	> 100 µg/mL
O=C(c1ccccc1Cl)n1c(-c2ccc(S(=O)(=O)O)cc2)nc2ccccc21	> 100 µg/mL
C=CC(=O)n1c(-c2ccc(S(=O)(=O)O)cc2)nc2ccccc21	100 µg/mL
O=C(c1ccc(Cl)cc1)n1c(-c2ccc(S(=O)(=O)O)cc2)nc2ccccc21	> 100 µg/mL

###

tested on: Escherichia coli; test: Antimicrobial activity against Escherichia coli after 24 hrs by tube dilution method; format: functional
Entries and their MBC values follow.
MEASURED PARAMETER: MBC (µg/mL)

GIVEN SMILES	TESTED TARGET	UNIT ABBREV	OBS VALUE
O=C(c1ccccc1O)n1c(-c2ccc(S(=O)(=O)O)cc2)nc2ccccc21	Escherichia coli	µg/mL	12.5
O=C(c1ccc(O)cc1O)n1c(-c2ccc(S(=O)(=O)O)cc2)nc2ccccc21	Escherichia coli	µg/mL	1.56
Cc1ccc(S(=O)(=O)n2c(-c3ccc(S(=O)(=O)O)cc3)nc3ccccc32)cc1	Escherichia coli	µg/mL	12.5
CCCCCCCCCCCCCCCC(=O)n1c(-c2ccc(S(=O)(=O)O)cc2)nc2ccccc21	Escherichia coli	µg/mL	12.5
O=C(c1ccccc1Cl)n1c(-c2ccc(S(=O)(=O)O)cc2)nc2ccccc21	Escherichia coli	µg/mL	1.56
CCCCCCCC/C=C/CCCCCCCC(=O)n1c(-c2ccc(S(=O)(=O)O)cc2)nc2ccccc21	Escherichia coli	µg/mL	3.12
Cc1ccccc1C(=O)n1c(-c2ccc(S(=O)(=O)O)cc2)nc2ccccc21	Escherichia coli	µg/mL	3.12
Nc1ccc(C(=O)n2c(-c3ccc(S(=O)(=O)O)cc3)nc3ccccc32)cc1	Escherichia coli	µg/mL	25
O=C(c1cccc(O)c1)n1c(-c2ccc(S(=O)(=O)O)cc2)nc2ccccc21	Escherichia coli	µg/mL	3.12
C=CC(=O)n1c(-c2ccc(S(=O)(=O)O)cc2)nc2ccccc21	Escherichia coli	µg/mL	1.56

###

test system: Escherichia coli; assay: Antimicrobial activity against Escherichia coli after 24 hrs by tube dilution method; format: functional
Below, each entry is listed with its recorded log10 of MBC.
MEASURED PARAMETER: log10 of MBC (log10 of the value in µg/mL)

GIVEN SMILES	log10 of MBC
COc1ccc(C(=O)n2c(-c3ccc(S(=O)(=O)O)cc3)nc3ccccc32)cc1	0.49
Nc1ccccc1C(=O)n1c(-c2ccc(S(=O)(=O)O)cc2)nc2ccccc21	0.19
Cc1ccc(C(=O)n2c(-c3ccc(S(=O)(=O)O)cc3)nc3ccccc32)cc1	1.40
O=C(c1ccc(Cl)cc1)n1c(-c2ccc(S(=O)(=O)O)cc2)nc2ccccc21	0.19
O=C(c1ccc([N+](=O)[O-])cc1)n1c(-c2ccc(S(=O)(=O)O)cc2)nc2ccccc21	0.19
C/C=C/C(=O)n1c(-c2ccc(S(=O)(=O)O)cc2)nc2ccccc21	1.10
CCCCC(=O)n1c(-c2ccc(S(=O)(=O)O)cc2)nc2ccccc21	0.80
C=C(C)C(=O)n1c(-c2ccc(S(=O)(=O)O)cc2)nc2ccccc21	1.10
O=C(c1ccccc1)n1c(-c2ccc(S(=O)(=O)O)cc2)nc2ccccc21	0.19
O=C(c1cccnc1)n1c(-c2ccc(S(=O)(=O)O)cc2)nc2ccccc21	0.19

###

experiment: Cytotoxicity against MDCK cells assessed as altered cell morphology; format: cell-based, Canis lupus familiaris; settings: dog

GIVEN SMILES	MCC
O=C(c1cccc(O)c1)n1c(-c2ccc(S(=O)(=O)O)cc2)nc2ccccc21	100 µg/mL
Nc1ccccc1C(=O)n1c(-c2ccc(S(=O)(=O)O)cc2)nc2ccccc21	≥ 4 µg/mL
O=C(c1cccnc1)n1c(-c2ccc(S(=O)(=O)O)cc2)nc2ccccc21	> 100 µg/mL

###

tested on: MDCK; assay: Cytotoxicity against MDCK cells assessed as cell viability by MTS assay; format: cell-based, Canis lupus familiaris; details: dog, mdck
MEASURED PARAMETER: CC50

GIVEN SMILES	OBS VALUE
O=C(c1ccc([N+](=O)[O-])cc1)n1c(-c2ccc(S(=O)(=O)O)cc2)nc2ccccc21	> 100 µg/mL
O=C(c1cccnc1)n1c(-c2ccc(S(=O)(=O)O)cc2)nc2ccccc21	> 100 µg/mL
Nc1ccccc1C(=O)n1c(-c2ccc(S(=O)(=O)O)cc2)nc2ccccc21	4.1 µg/mL
O=C(c1ccccc1)n1c(-c2ccc(S(=O)(=O)O)cc2)nc2ccccc21	> 100 µg/mL
C/C=C/C(=O)n1c(-c2ccc(S(=O)(=O)O)cc2)nc2ccccc21	> 100 µg/mL
CCCCC(=O)n1c(-c2ccc(S(=O)(=O)O)cc2)nc2ccccc21	> 100 µg/mL
O=C(c1ccc(O)cc1O)n1c(-c2ccc(S(=O)(=O)O)cc2)nc2ccccc21	54 µg/mL
O=C(c1ccccc1Cl)n1c(-c2ccc(S(=O)(=O)O)cc2)nc2ccccc21	> 100 µg/mL
O=C(c1ccccc1O)n1c(-c2ccc(S(=O)(=O)O)cc2)nc2ccccc21	> 100 µg/mL
O=C(c1ccc(Cl)cc1)n1c(-c2ccc(S(=O)(=O)O)cc2)nc2ccccc21	> 100 µg/mL
Nc1ccc(C(=O)n2c(-c3ccc(S(=O)(=O)O)cc3)nc3ccccc32)cc1	46.8 µg/mL
C=CC(=O)n1c(-c2ccc(S(=O)(=O)O)cc2)nc2ccccc21	14.1 µg/mL
COc1ccc(C(=O)n2c(-c3ccc(S(=O)(=O)O)cc3)nc3ccccc32)cc1	> 100 µg/mL
Cc1ccccc1C(=O)n1c(-c2ccc(S(=O)(=O)O)cc2)nc2ccccc21	> 100 µg/mL
Cc1ccc(S(=O)(=O)n2c(-c3ccc(S(=O)(=O)O)cc3)nc3ccccc32)cc1	> 100 µg/mL
Cc1ccc(C(=O)n2c(-c3ccc(S(=O)(=O)O)cc3)nc3ccccc32)cc1	> 100 µg/mL
CCCCCCCC/C=C/CCCCCCCC(=O)n1c(-c2ccc(S(=O)(=O)O)cc2)nc2ccccc21	> 100 µg/mL
CCCCCCCCCCCCCCCC(=O)n1c(-c2ccc(S(=O)(=O)O)cc2)nc2ccccc21	> 100 µg/mL
C=C(C)C(=O)n1c(-c2ccc(S(=O)(=O)O)cc2)nc2ccccc21	> 100 µg/mL
O=C(c1cccc(O)c1)n1c(-c2ccc(S(=O)(=O)O)cc2)nc2ccccc21	> 100 µg/mL
